test system: U251 CNS; experiment: NCI tumour cell line growth inhibition, 48 h
observable: TGI

[
  {
    "compound": "CSc1nc(NC2OC(COC(C)=O)C(OC(C)=O)C(OC(C)=O)C2OC(C)=O)c(N=CC=Nc2c(NC3OC(COC(C)=O)C(OC(C)=O)C(OC(C)=O)C3OC(C)=O)nc(SC)[nH]c2=O)c(=O)[nH]1 (centres undefined)",
    "readout value": "> 100 µM"
  },
  {
    "compound": "COc1cc(/C=C2\\C(=O)Nc3ccccc32)cc(OC)c1O",
    "readout value": "14 µM"
  },
  {
    "compound": "CCC(C)NC(=S)N/N=C(\\C)c1nc2ncccc2[nH]1 (centres undefined)",
    "readout value": "> 100 µM"
  },
  {
    "compound": "Cc1ccccc1NC(=O)/C(=N/NC(=O)CC#N)C1C(=O)N(c2ccccc2)N=C1N (centres undefined)",
    "readout value": "> 100 µM"
  }
]

====

test system: HCC-2998 colon; assay: NCI tumour cell line growth inhibition, 48 h; in the data active = GI50 below about 0.43 µM; inactive = the rest
Labels: active, inactive

[
  {
    "molecule": "COC(=O)/C=C1/SC(=Nc2ccc(F)cc2)N(CCc2c[nH]c3ccc(O)cc23)C1=O",
    "target desc": "HCC-2998 colon",
    "label": "inactive"
  },
  {
    "molecule": "CCN(CC)CC(O)CNc1c2ccc(Cl)cc2nc2ccc(OC)cc12 (stereo not given)",
    "target desc": "HCC-2998 colon",
    "label": "inactive"
  },
  {
    "molecule": "CC(=O)Oc1cc(C(C)C)c(OCCN(C)C)cc1C",
    "target desc": "HCC-2998 colon",
    "label": "inactive"
  },
  {
    "molecule": "O=C1/C=C/[C@@H](O)[C@@H]2C[C@@H](O)C[C@H]2/C=C/CCC[C@H](CCc2ccccc2)O1",
    "target desc": "HCC-2998 colon",
    "label": "active"
  },
  {
    "molecule": "CC(=O)NC1C(OCc2ccccc2)OC(CO)C(O)C1OC(C)C(=O)NC(C)C(=O)N[C@@H](CCC(=O)OCCCNC1c2ccccc2Nc2cccc([N+](=O)[O-])c21)C(N)=O (stereo not given in full)",
    "target desc": "HCC-2998 colon",
    "label": "active"
  },
  {
    "molecule": "Clc1ccc(Cn2c(CN3CCCC3)nc3ccccc32)cc1",
    "target desc": "HCC-2998 colon",
    "label": "inactive"
  },
  {
    "molecule": "Cc1ccc(C2=Nc3c(N)nc(N)nc3NC(c3cccc(Nc4ccnc5cc(C(F)(F)F)ccc45)c3)C2)cc1 (stereo not given)",
    "target desc": "HCC-2998 colon",
    "label": "inactive"
  },
  {
    "molecule": "O=C(Nc1ccc(Cl)cc1)Nc1ccc(Cl)c(C(F)(F)F)c1",
    "target desc": "HCC-2998 colon",
    "label": "inactive"
  },
  {
    "molecule": "O=C(OCC1OC(n2cc(C(F)(F)F)c(=O)[nH]c2=O)CC1OC(=O)c1ccc([N+](=O)[O-])cc1)c1ccc([N+](=O)[O-])cc1 (stereo not given)",
    "target desc": "HCC-2998 colon",
    "label": "inactive"
  },
  {
    "molecule": "CC(C)N(CCCNC(=O)Nc1ccc(C(C)(C)C)cc1)C[C@H]1O[C@@H](n2ccc3c(N)ncnc32)[C@H](O)[C@@H]1O",
    "target desc": "HCC-2998 colon",
    "label": "inactive"
  },
  {
    "molecule": "CCCN1C/C(=C\\c2ccc(O)c(OC)c2)C(=O)/C(=C/c2ccc(O)c(OC)c2)C1",
    "target desc": "HCC-2998 colon",
    "label": "inactive"
  },
  {
    "molecule": "Nc1nc2cc(O)ccc2n2cc3c(F)cccc3c12",
    "target desc": "HCC-2998 colon",
    "label": "inactive"
  },
  {
    "molecule": "COc1ccc2c(c1OC)-c1c(c3ccc([N+](=O)[O-])cc3c(=O)n1CCCN)C2=O",
    "target desc": "HCC-2998 colon",
    "label": "inactive"
  },
  {
    "molecule": "COc1cc2c3c(n(CCCNC4=NCCS4)c(=O)c2cc1OC)-c1cc2c(cc1C3=O)OCO2",
    "target desc": "HCC-2998 colon",
    "label": "active"
  },
  {
    "molecule": "COc1ccc(-c2ccc(-c3ccc(C(=N)N)c(F)c3)s2)cc1",
    "target desc": "HCC-2998 colon",
    "label": "active"
  }
]

Source of measurements: PubChem BioAssay (NCI)
